- Tested on: barnyard grass seeds
- experimentDescription: Petri dish seed germination method: inhibition of root and stem growth of barnyard grass
- Format: in vivo
- conditionParameters: 1.25 mmol/L, 96 hours incubation
Label 0.0 if inhibition rate on the root growth of barnyard grass seeds falls below 70%; label 1.0 in every other case.

>  <molecule>
CC1(N=Cc2ccccc2C(F)(F)F)CCC(C(C)(C)N=Cc2ccccc2C(F)(F)F)CC1 (stereo not drawn) [reference compound]

>  <assayTarget>
barnyard grass seeds

>  <category>
0.0

$$$$
>  <molecule>
CC(C)(N=Cc1ccc(Cl)cc1)[C@H]1CC[C@@](C)(N=Cc2ccc(Cl)cc2)CC1 [reference compound]

>  <assayTarget>
barnyard grass seeds

>  <category>
1.0

$$$$
>  <molecule>
CC1(NCc2cccnc2)CCC(C(C)(C)NCc2cccnc2)CC1 (stereo not drawn)

>  <assayTarget>
barnyard grass seeds

>  <category>
0.0

$$$$
>  <molecule>
CC1(NCc2ccco2)CCC(C(C)(C)NCc2ccco2)CC1 (stereo not drawn)

>  <assayTarget>
barnyard grass seeds

>  <category>
0.0

$$$$

Hello, I need to know if Cc1ccc(CNC(C)(C)[C@H]2CC[C@@](C)(NCc3ccc(C)cc3)CC2)cc1 has measured inhibition rate on the root growth of barnyard grass seeds not below 70%. Thanks!
1.0

---

Quick reference: inhibition rate on the root growth of barnyard grass seeds of the listed items.
- Tested on: barnyard grass seeds
- experimentDescription: Petri dish seed germination method: inhibition of root and stem growth of barnyard grass
- Assay type: in vivo
- conditionParameters: 1.25 mmol/L, 96 hours incubation
Form entry: value (%) — number only.

>  <compound>
CC1(NCc2ccc(F)cc2)CCC(C(C)(C)NCc2ccc(F)cc2)CC1 (stereo not drawn)

>  <unitAbbrev>
%

>  <numericValue>
78.6

$$$$
>  <compound>
COc1ccc(CNC2(C)CCC(C(C)(C)NCc3ccc(OC)cc3)CC2)cc1 (stereo not drawn)

>  <unitAbbrev>
%

>  <numericValue>
95.1

$$$$
>  <compound>
CC1(NCc2ccc(Br)o2)CCC(C(C)(C)NCc2ccc(Br)o2)CC1 (stereo not drawn)

>  <unitAbbrev>
%

>  <numericValue>
61.5

$$$$
>  <compound>
CN(C)c1ccc(CNC2(C)CCC(C(C)(C)NCc3ccc(N(C)C)cc3)CC2)cc1 (stereo not drawn)

>  <unitAbbrev>
%

>  <numericValue>
48.1

$$$$
>  <compound>
CC1(NCc2cccs2)CCC(C(C)(C)NCc2cccs2)CC1 (stereo not drawn)

>  <unitAbbrev>
%

>  <numericValue>
50.0

$$$$
>  <compound>
CC1(NCc2ccc(C(F)(F)F)cc2)CCC(C(C)(C)NCc2ccc(C(F)(F)F)cc2)CC1 (stereo not drawn)

>  <unitAbbrev>
%

>  <numericValue>
86.1

$$$$

compound CN(C)c1ccc(C=NC(C)(C)[C@H]2CC[C@@](C)(N=Cc3ccc(N(C)C)cc3)CC2)cc1 [reference compound] , inhibition rate on the root growth of barnyard grass seeds observed: 49.8

// inhibition rate on the root growth of barnyard grass seeds lookup, compound = CSc1ccc(CNC2(C)CCC(C(C)(C)NCc3ccc(SC)cc3)CC2)cc1 (stereo not drawn) , result: 90.8

Field inhibition rate on the root growth of barnyard grass seeds (entry COc1ccc(C=NC2(C)CCC(C(C)(C)N=Cc3ccc(OC)cc3)CC2)cc1 (stereo not drawn) [reference compound] ) reads 55.3

---

The entries below come with measured inhibition rate on the root growth of barnyard grass seeds values attached.
- Test system: barnyard grass seeds
- experimentDescription: Petri dish seed germination method: inhibition of root and stem growth of barnyard grass
- Assay type: in vivo
- conditionParameters: 0.625 mmol/L, 96 hours incubation
Units required after the number.

Answered cases to consult:
>  <compound>
CC1(NCc2cccnc2)CCC(C(C)(C)NCc2cccnc2)CC1 (stereo not shown)

>  <result>
19.2%

$$$$
>  <compound>
CSc1ccc(CNC2(C)CCC(C(C)(C)NCc3ccc(SC)cc3)CC2)cc1 (stereo not shown)

>  <result>
77.2%

$$$$
>  <compound>
CC1(NCc2ccncc2)CCC(C(C)(C)NCc2ccncc2)CC1 (stereo not shown)

>  <result>
40.6%

$$$$

Summary for this compound, CC(C)(NCc1ccccc1C(F)(F)F)[C@H]1CC[C@@](C)(NCc2ccccc2C(F)(F)F)CC1 : inhibition rate on the root growth of barnyard grass seeds is 68.0%

Just so you know, measured inhibition rate on the root growth of barnyard grass seeds for CC1(N=Cc2ccc(C(F)(F)F)cc2)CCC(C(C)(C)N=Cc2ccc(C(F)(F)F)cc2)CC1 (stereo not shown) [reference compound] came out at 0.8%

For record CC1(NCc2ccco2)CCC(C(C)(C)NCc2ccco2)CC1 (stereo not shown) the listed inhibition rate on the root growth of barnyard grass seeds is 39.0%

Given item CC(C)(NCc1ccc(Br)cc1)[C@H]1CC[C@@](C)(NCc2ccc(Br)cc2)CC1 , the value recorded as its inhibition rate on the root growth of barnyard grass seeds is 83.4%

Reported inhibition rate on the root growth of barnyard grass seeds ( CC1(N=Cc2ccccc2C(F)(F)F)CCC(C(C)(C)N=Cc2ccccc2C(F)(F)F)CC1 (stereo not shown) [reference compound] ) = 15.4%

The compound listed as CC1(NCc2ccc(C(F)(F)F)cc2)CCC(C(C)(C)NCc2ccc(C(F)(F)F)cc2)CC1 (stereo not shown) has a reported inhibition rate on the root growth of barnyard grass seeds of 82.3%

// sample CC(C)(NCc1ccccn1)[C@H]1CC[C@@](C)(NCc2ccccn2)CC1 , its inhibition rate on the root growth of barnyard grass seeds was 33.8%

Value of measured inhibition rate on the root growth of barnyard grass seeds for the entry COc1ccc(CNC2(C)CCC(C(C)(C)NCc3ccc(OC)cc3)CC2)cc1 (stereo not shown) : 88.7%

For CC1(NCc2ccc[nH]2)CCC(C(C)(C)NCc2ccc[nH]2)CC1 (stereo not shown) the compound record lists inhibition rate on the root growth of barnyard grass seeds as 87.7%

GET /value?item= CC(C)(N=Cc1ccc(Br)cc1)[C@H]1CC[C@@](C)(N=Cc2ccc(Br)cc2)CC1 [reference compound] &field=inhibition rate on the root growth of barnyard grass seeds returns 28.5%
